- experimental-details: Drug excretion in Wistar-Hannover rat urine at 1 mg/kg, iv and measured up to 24 hrs by LC/MS-MS analysis
- Format: ADME, organism-based
- measurement-context: read-out: Drug excretion
endpoint: dose excreted at 24 h

Note to self: dose excreted at 24 h recorded for COc1cc(C(=O)N2CCC3(CC2)CC(=O)c2c(cnn2C(C)C)C3)cc(-c2ccc(C(=O)O)cc2)n1 [CLESACOSTAT] was < 2%

---

Please provide measured half-life for the entries that follow.
- experimental-details: Half life in Wistar-Hannover rat plasma at 1 mg/kg, iv and measured up to 24 hrs by LC/MS-MS analysis
- Type: ADME, organism-based
Numbers only, in h.

[
  {
    "compound": "COc1cc(C(=O)N2CCC3(CC2)CC(=O)c2nn(C(C)(C)C)cc2O3)cc(-c2ccc(C(=O)O)cc2)n1",
    "endpoint": "half-life",
    "unit-abbrev": "h",
    "observed": 3.5
  }
]

List half-life for every entry below, keeping the order given.
1. CC(C)n1ncc2c1C(=O)CC1(CCN(C(=O)c3cc(-c4ccc(C(=O)O)cc4)nc(N(C)C)c3)CC1)C2
2. COc1cc(C(=O)N2CCC3(CC2)CC(=O)c2c(cnn2C(C)C)C3)cc(-c2ccc(C(=O)O)cc2)n1 [CLESACOSTAT]

1: 7.5; 2: 8.6

---

- tested-target: Acetyl-CoA carboxylase 1 (Homo sapiens)
- experimental-details: Uncompetitive inhibition of human ACC1 incubated for 15 mins in presence of ATP by Line weaver-Burk plot analysis
endpoint: IC50 (nM)
Answers are plain numbers, in nM.

Note to self: IC50 recorded for COc1cc(C(=O)N2CCC3(CC2)CC(=O)c2c(cnn2C(C)C)C3)cc(-c2ccc(C(=O)O)cc2)n1 [CLESACOSTAT] was 12.4

---

- experimental-details: Drug uptake in human hepatocytes assessed as active uptake intrinsic clearance at 1 uM up to 15 mins by LC-MS/MS analysis
- Type: ADME, cell-based, Hepatocyte
- measurement-context: 0.25 h
endpoint: CLH (µL/min/mg)
One number for each entry, in µL/min/mg.

Note to self: CLH recorded for COc1cc(C(=O)N2CCC3(CC2)CC(=O)c2c(cnn2C(C)C)C3)cc(-c2ccc(C(=O)O)cc2)n1 [CLESACOSTAT] was 24

---

- tested-target: Organic anion transporter 3 (Homo sapiens, UniProt Q8TCC7)
- Sequence (Q8TCC7 whole entry): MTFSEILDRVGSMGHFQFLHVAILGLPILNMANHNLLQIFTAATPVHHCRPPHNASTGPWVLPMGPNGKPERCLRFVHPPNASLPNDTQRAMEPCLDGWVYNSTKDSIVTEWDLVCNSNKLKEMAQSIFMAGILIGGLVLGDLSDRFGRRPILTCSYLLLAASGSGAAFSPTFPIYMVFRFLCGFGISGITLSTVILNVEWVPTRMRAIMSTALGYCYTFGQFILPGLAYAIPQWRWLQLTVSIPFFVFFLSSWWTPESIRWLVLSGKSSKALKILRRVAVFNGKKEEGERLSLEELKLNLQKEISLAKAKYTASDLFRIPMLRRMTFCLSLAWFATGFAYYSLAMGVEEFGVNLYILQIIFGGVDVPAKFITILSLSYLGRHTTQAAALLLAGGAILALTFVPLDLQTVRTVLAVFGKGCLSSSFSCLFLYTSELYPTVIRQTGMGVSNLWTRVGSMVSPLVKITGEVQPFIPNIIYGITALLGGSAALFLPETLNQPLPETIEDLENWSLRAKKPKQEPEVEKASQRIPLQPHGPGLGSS
- experimental-details: Inhibition of human SLC22A8 expressed in HEK293 cells in presence of para-aminohippuric acid/metformin
endpoint: IC50

Note to self: IC50 recorded for COc1cc(C(=O)N2CCC3(CC2)CC(=O)c2c(cnn2C(C)C)C3)cc(-c2ccc(C(=O)O)cc2)n1 was > 30 µM

---

- experimental-details: Drug uptake in Wistar-Hannover rat assessed as plasma concentration at 10 mg/kg, po after 6 hrs by LC/MS-MS analysis
- Assay type: ADME, organism-based
endpoint: concentration at 6 h
Please state the value followed by its unit.

Note to self: concentration at 6 h recorded for COc1cc(C(=O)N2CCC3(CC2)CC(=O)c2c(cnn2C(C)C)C3)cc(-c2ccc(C(=O)O)cc2)n1 was 314 ng/mL

---

- experimental-details: Oral bioavailability in cynomolgus monkey plasma at 5 mg/kg using tris(hydroxymethyl)aminomethane (tris) salt form of compound and measured up to 24 hrs by LC/MS-MS analysis
- Assay type: ADME, organism-based, Macaca fascicularis
endpoint: bioavailability (%)
Give bare numbers, in %.

Note to self: bioavailability recorded for COc1cc(C(=O)N2CCC3(CC2)CC(=O)c2c(cnn2C(C)C)C3)cc(-c2ccc(C(=O)O)cc2)n1.NC(CO)(CO)CO [CLESACOSTAT TROMETHAMINE] was 52
